Origin of values: patent US20250295763A1

- condition.parameters: Table 3; same groups; D 14
Hi there, I'd appreciate the recorded Average body weight change (%) Post-dose 1 D 14 for every entry that follows.

molecule	measured.value
COc1ccc(CCCCCCCCNC(=O)[C@H]2O[C@@H](O[C@H]3CCC4(C)C5CC=C6C7CC(C)(C)CC[C@]7(C(=O)O[C@@H]7OC(C)[C@H](O)[C@H](O)C7O[C@@H]7OC(C)[C@H](O[C@@H]8OC[C@@H](O)[C@H](O)C8O)[C@H](O)C7O)C(O)CC6(C)[C@@]5(C)CC[C@H]4[C@@]3(C)C=O)[C@H](O)[C@@H](O)[C@@H]2O)cc1 (stereo partly shown) [Synsap 1]	3.753%
CC1O[C@@H](OC(=O)[C@]23CCC(C)(C)CC2C2=CCC4C5(C)CC[C@H](O[C@@H]6O[C@H](C(=O)NCCCCCCCCc7ccc(Oc8ccccc8)cc7)[C@@H](O)[C@H](O)[C@H]6O)[C@](C)(C=O)[C@@H]5CC[C@]4(C)C2(C)CC3O)C(O[C@@H]2OC(C)[C@H](O[C@@H]3OC[C@@H](O)[C@H](O)C3O)[C@H](O)C2O)[C@@H](O)[C@H]1O (stereo partly shown) [Synsap 3]	6.946%
CCCCCCCCCCCCCC(=O)O[C@H](CCCCCCCCCCC)CC(=O)NC1C(OC(=O)C[C@@H](CCCCCCCCCCC)OC(=O)CCCCCCCCCCCCC)[C@H](OP(=O)(O)O)C(CO)O[C@H]1OCC1O[C@H](O)C(NC(=O)C[C@@H](CCCCCCCCCCC)OC(=O)CCCCCCCCCCCCC)C(O)[C@@H]1O.N (stereo partly shown) [Synsap 3D-6A-PHAD, reference compound]	6.215%

// Average body weight change (%) Post-dose 1 D 14 lookup, key: CCCCCCCCCCCCCC(=O)O[C@H](CCCCCCCCCCC)CC(=O)OC1C(NC(=O)C[C@@H](CCCCCCCCCCC)OC(=O)CCCCCCCCCCC)[C@H](OCC2O[C@H](O)C(NC(=O)C[C@H](O)CCCCCCCCCCC)C(OC(=O)C[C@H](O)CCCCCCCCCCC)[C@@H]2O)OC(CO)[C@H]1OP(=O)(O)O (stereo partly shown) [EcML, reference compound]
7.914%

###

- condition.parameters: Table 3; same groups; D 16
Assignment: determine reported Average body weight change (%) Post-dose 2 D 16 for the given molecules.
One number for each entry, in %.

Sample records with Average body weight change (%) Post-dose 2 D 16:
molecule	measurement.unit	measured.value
CC1O[C@@H](OC(=O)[C@]23CCC(C)(C)CC2C2=CCC4C5(C)CC[C@H](O[C@@H]6O[C@H](C(=O)NCCCCCCCCc7ccc(Oc8ccccc8)cc7)[C@@H](O)[C@H](O)[C@H]6O)[C@](C)(C=O)[C@@H]5CC[C@]4(C)C2(C)CC3O)C(O[C@@H]2OC(C)[C@H](O[C@@H]3OC[C@@H](O)[C@H](O)C3O)[C@H](O)C2O)[C@@H](O)[C@H]1O (stereo partly drawn) [Synsap 3]	%	1.208
CCCCCCCCCCCCCC(=O)O[C@H](CCCCCCCCCCC)CC(=O)NC1C(OC(=O)C[C@@H](CCCCCCCCCCC)OC(=O)CCCCCCCCCCCCC)[C@H](OP(=O)(O)O)C(CO)O[C@H]1OCC1O[C@H](O)C(NC(=O)C[C@@H](CCCCCCCCCCC)OC(=O)CCCCCCCCCCCCC)C(O)[C@@H]1O.N (stereo partly drawn) [Synsap 3D-6A-PHAD, reference compound]	%	0.463

Now turn to the next molecule.
Entry COc1ccc(CCCCCCCCNC(=O)[C@H]2O[C@@H](O[C@H]3CCC4(C)C5CC=C6C7CC(C)(C)CC[C@]7(C(=O)O[C@@H]7OC(C)[C@H](O)[C@H](O)C7O[C@@H]7OC(C)[C@H](O[C@@H]8OC[C@@H](O)[C@H](O)C8O)[C@H](O)C7O)C(O)CC6(C)[C@@]5(C)CC[C@H]4[C@@]3(C)C=O)[C@H](O)[C@@H](O)[C@@H]2O)cc1 (stereo partly drawn) [Synsap 1] : reported Average body weight change (%) Post-dose 2 D 16 = ?
−1.393

###

- condition.parameters: Table 3; same groups; D 15
Provide the recorded Average body weight change (%) Post-dose 2 D 15 for the entries that follow.
Give bare numbers, in %.

compound	measured.value
COc1ccc(CCCCCCCCNC(=O)[C@H]2O[C@@H](O[C@H]3CCC4(C)C5CC=C6C7CC(C)(C)CC[C@]7(C(=O)O[C@@H]7OC(C)[C@H](O)[C@H](O)C7O[C@@H]7OC(C)[C@H](O[C@@H]8OC[C@@H](O)[C@H](O)C8O)[C@H](O)C7O)C(O)CC6(C)[C@@]5(C)CC[C@H]4[C@@]3(C)C=O)[C@H](O)[C@@H](O)[C@@H]2O)cc1 (stereo partly shown) [Synsap 1]	2.417
CC1O[C@@H](OC(=O)[C@]23CCC(C)(C)CC2C2=CCC4C5(C)CC[C@H](O[C@@H]6O[C@H](C(=O)NCCCCCCCCc7ccc(Oc8ccccc8)cc7)[C@@H](O)[C@H](O)[C@H]6O)[C@](C)(C=O)[C@@H]5CC[C@]4(C)C2(C)CC3O)C(O[C@@H]2OC(C)[C@H](O[C@@H]3OC[C@@H](O)[C@H](O)C3O)[C@H](O)C2O)[C@@H](O)[C@H]1O (stereo partly shown) [Synsap 3]	−0.739
CCCCCCCCCCCCCC(=O)O[C@H](CCCCCCCCCCC)CC(=O)NC1C(OC(=O)C[C@@H](CCCCCCCCCCC)OC(=O)CCCCCCCCCCCCC)[C@H](OP(=O)(O)O)C(CO)O[C@H]1OCC1O[C@H](O)C(NC(=O)C[C@@H](CCCCCCCCCCC)OC(=O)CCCCCCCCCCCCC)C(O)[C@@H]1O.N (stereo partly shown) [Synsap 3D-6A-PHAD, reference compound]	−1.147

We next turn to a different compound, shown below.
Return reported Average body weight change (%) Post-dose 2 D 15; argument: CCCCCCCCCCCCCC(=O)O[C@H](CCCCCCCCCCC)CC(=O)OC1C(NC(=O)C[C@@H](CCCCCCCCCCC)OC(=O)CCCCCCCCCCC)[C@H](OCC2O[C@H](O)C(NC(=O)C[C@H](O)CCCCCCCCCCC)C(OC(=O)C[C@H](O)CCCCCCCCCCC)[C@@H]2O)OC(CO)[C@H]1OP(=O)(O)O (stereo partly shown) [EcML, reference compound]
−3.002

###

- condition.parameters: Table 3; same groups; D 16
parameter.measured: Average body weight change (%) Post-dose 2 D 16
Give the number first and the unit second.

Form field: reported Average body weight change (%) Post-dose 2 D 16 of CCCCCCCCCCCCCC(=O)O[C@H](CCCCCCCCCCC)CC(=O)OC1C(NC(=O)C[C@@H](CCCCCCCCCCC)OC(=O)CCCCCCCCCCC)[C@H](OCC2O[C@H](O)C(NC(=O)C[C@H](O)CCCCCCCCCCC)C(OC(=O)C[C@H](O)CCCCCCCCCCC)[C@@H]2O)OC(CO)[C@H]1OP(=O)(O)O (stereo partly shown) [EcML, reference compound]
−0.735%
